# assay-overview: Human HepG2 cell viability assay in 384 well format
# Assay type: toxicity, cell-based
# Parameters: dose 125 nL, time 70.5 hour; concentration not given beside the values
# applied-conditions: HepG2 cells, read-out: Inhibition
readout-label: cytotoxicity at 70.5 h

Examples with answers:
molecule=COc1ccc([C@@H]2CN(Cc3ccncc3)C[C@H]2N(C)C)cc1 readout_label="cytotoxicity at 70.5 h" observed_measurement=-9.42%
molecule=CCN1C(=O)[C@H]2CN(CC(C)C)C[C@H]2C12CCN(C(=O)NC(C)C)CC2 readout_label="cytotoxicity at 70.5 h" observed_measurement=-1.18%

Request: // query cytotoxicity at 70.5 h value for entry Cc1cc(CN2CCN(C(=O)Cc3ccccc3F)CC2)on1
Response: -14%

Request: // query cytotoxicity at 70.5 h value for entry N#CC1(NC(=O)CNCCn2cccn2)CCCCC1
Response: -1.06%

Request: // query cytotoxicity at 70.5 h value for entry CN(C)c1ncccc1CN1CCOC(C(=O)Nc2ccccc2)C1 (stereo not drawn)
Response: -7.2%

Request: // query cytotoxicity at 70.5 h value for entry O[C@@H]1C[C@@H](c2nc(-c3ccc(F)cc3)no2)N(C2CCOCC2)C1
Response: -3.33%

Request: // query cytotoxicity at 70.5 h value for entry NC(=O)C1(c2cnccn2)CCCN1Cc1ccc(Cl)c(F)c1 (stereo not drawn)
Response: -5.01%

Request: // query cytotoxicity at 70.5 h value for entry CCc1nc(C(=O)N2CCCCC2)nn1-c1ccccc1Cl
Response: -6.89%

* * *

The following molecules are listed with their measured cytotoxicity at 70.5 h values.
# assay-overview: Human HepG2 cell viability assay in 384 well format
# Assay type: toxicity, cell-based
# Parameters: dose 125 nL, time 70.5 hour; concentration not given beside the values
# applied-conditions: HepG2 cells, read-out: Inhibition
// note: answer is a bare numeric in %

molecule="CCc1nccn1C1CCCN(C(=O)Cc2cn3ccccc3n2)C1 (configuration not stated)" observed_measurement=-3.88
molecule="COC(=O)N1CCCC(C(=O)Nc2nc(C)c(SC)s2)C1 (configuration not stated)" observed_measurement=-9.54
molecule=CC(C)N(Cc1cccnc1)C(=O)CSc1ccc(C#N)cc1 observed_measurement=-8.92
molecule=COc1ccc(CNc2ncnc3c2NC(=O)CN3)cc1 observed_measurement=-6.06
molecule=Cc1ccc(C(=O)NC2CCN(Cc3cccc4c3OCCO4)CC2)s1 observed_measurement=-2.59
molecule="Cn1ccnc1CNC(=O)N(CCCO)C1CCc2ccccc21 (configuration not stated)" observed_measurement=-4.97

Then there is this molecule:
Request: // query cytotoxicity at 70.5 h value for entry COc1ccc(/C=C/CN2CCCC3(C2)CN(C)C(=O)O3)cc1 (configuration not stated)
Response: 11.6

* * *

The following compounds are listed with their measured cytotoxicity at 70.5 h values.
# assay-overview: Human HepG2 cell viability assay in 384 well format
# Format: toxicity, cell-based
# Parameters: dose 125 nL, time 70.5 hour; concentration not given beside the values
# applied-conditions: HepG2 cells, read-out: Inhibition

Examples with answers:
compound=COc1cccc(CC(=O)N2CCC(NCc3c[nH]nc3C)CC2)c1 readout_label="cytotoxicity at 70.5 h" observed_measurement=-4.19%
compound=CS(=O)(=O)NCc1noc2c1CN(C(=O)C1CC1)CC2 readout_label="cytotoxicity at 70.5 h" observed_measurement=-7.86%
compound="C1CC(c2noc(C3CC3)n2)CN(Cc2noc(C3CC3)n2)C1 (centres undefined)" readout_label="cytotoxicity at 70.5 h" observed_measurement=-7.62%

Then there is this compound:
Request: // query cytotoxicity at 70.5 h value for entry Cc1noc(C)c1CC(=O)N1CCCC(c2noc(C(C)C)n2)C1 (centres undefined)
Response: -9.31%

* * *

# assay-overview: Human HepG2 cell viability assay in 384 well format
# Format: toxicity, cell-based
# Parameters: dose 125 nL, time 70.5 hour; concentration not given beside the values
# applied-conditions: HepG2 cells, read-out: Inhibition
The following molecules are listed with their measured cytotoxicity at 70.5 h values.
Returns: string containing the numeric result and its unit.

Examples with answers:
molecule=CC(C)(C)C(=O)NCCC(=O)NS(=O)(=O)c1ccc2c(c1)OCCO2 readout_label="cytotoxicity at 70.5 h" observed_measurement=0.749%
molecule=Cc1ncsc1CN1C[C@@H](O)[C@](O)(CNC(=O)c2ccccn2)C1 readout_label="cytotoxicity at 70.5 h" observed_measurement=-10.6%
molecule=COc1ccc(CNC(=O)NC2CCN(CC(F)F)CC2)cc1C readout_label="cytotoxicity at 70.5 h" observed_measurement=-7.09%
molecule="CC(=O)N1CCCCC1c1cc(CO)[nH]n1 (stereo not given)" readout_label="cytotoxicity at 70.5 h" observed_measurement=-18.5%

Then there is this molecule:
Request: // query cytotoxicity at 70.5 h value for entry CC(=O)NCC(=O)N1Cc2nccn2CC(Cn2cccn2)C1 (stereo not given)
Response: -4.71%

* * *

# assay-overview: Human HepG2 cell viability assay in 384 well format
# Type: toxicity, cell-based
# Design: dose 125 nL, time 70.5 hour; concentration not given beside the values
# applied-conditions: HepG2 cells, read-out: Inhibition
readout-label: cytotoxicity at 70.5 h (%)
// note: answer is a bare numeric in %

Request: // query cytotoxicity at 70.5 h value for entry CCn1cc(CN2CCCC(COc3ccccc3F)C2)cn1 (stereo unspecified)
Response: 10.5

Request: // query cytotoxicity at 70.5 h value for entry c1cnc(-c2nc(CN3CCCC(N4CCCC4)C3)cs2)nc1 (stereo unspecified)
Response: -3.36

* * *

The following compounds are listed with their measured cytotoxicity at 70.5 h values.
# assay-overview: Human HepG2 cell viability assay in 384 well format
# Assay type: toxicity, cell-based
# Design: dose 125 nL, time 70.5 hour; concentration not given beside the values
# applied-conditions: HepG2 cells, read-out: Inhibition
// note: answer is a bare numeric in %

Examples with answers:
compound=COCCN1CCN(S(C)(=O)=O)Cc2cccnc21 readout_label="cytotoxicity at 70.5 h" observed_measurement=-5.85
compound=Cc1cc(CN(CCCO)c2ccccc2)on1 readout_label="cytotoxicity at 70.5 h" observed_measurement=-0.833
compound="COCCOC1CCN(C(C(=O)O)c2ccc(F)c(Cl)c2)CC1 (stereo not drawn)" readout_label="cytotoxicity at 70.5 h" observed_measurement=-9.08
compound=COc1ccc(CNc2c(N3CCN(C(C)=O)CC3)c(=O)c2=O)cc1 readout_label="cytotoxicity at 70.5 h" observed_measurement=-12.5
compound=Cc1ccccc1CS(=O)(=O)CC(=O)N(C)Cc1cccc(F)c1 readout_label="cytotoxicity at 70.5 h" observed_measurement=-6.34
compound="CS(=O)(=O)N1CCCC(C(=O)Nc2cnn(Cc3ccc(F)cc3)c2)C1 (stereo not drawn)" readout_label="cytotoxicity at 70.5 h" observed_measurement=0.36

Request: // query cytotoxicity at 70.5 h value for entry CN1CCCC1c1ccnc(-c2ccccc2)n1 (stereo not drawn)
Response: -2.81

Request: // query cytotoxicity at 70.5 h value for entry CN(CCCc1nccn1C)C(=O)C1CCN(C(=O)C2CCC2)CC1
Response: 3.53

* * *

# assay-overview: Human HepG2 cell viability assay in 384 well format
# Assay type: toxicity, cell-based
# Parameters: dose 125 nL, time 70.5 hour; concentration not given beside the values
# applied-conditions: HepG2 cells, read-out: Inhibition
readout-label: cytotoxicity at 70.5 h (%)
// note: answer is a bare numeric in %

Examples with answers:
compound=CN(C)C(C)(C)CNC(=O)C(C)(C)c1ccccc1F readout_label="cytotoxicity at 70.5 h" observed_measurement=4.83
compound=CC(=O)Nc1ccccc1Sc1nc(Br)nn1C readout_label="cytotoxicity at 70.5 h" observed_measurement=-4.88
compound=CSc1ccc(CNCCS(=O)(=O)N2CCOCC2)cc1 readout_label="cytotoxicity at 70.5 h" observed_measurement=-3.35

Request: // query cytotoxicity at 70.5 h value for entry c1ccc(-c2nc(CN3CCOC(Cn4cncn4)C3)cs2)cc1 (centres undefined)
Response: -3.05

Request: // query cytotoxicity at 70.5 h value for entry CN1CCOC(CNCc2c(Cl)nc3ccccn23)C1 (centres undefined)
Response: -19.2

Request: // query cytotoxicity at 70.5 h value for entry Cc1cncc(CN2C[C@@H](O)[C@H](Oc3ccccc3)C2)c1
Response: -0.379

Request: // query cytotoxicity at 70.5 h value for entry O=C(CCc1ccc(Cl)cc1)N[C@@H]1CC[C@@H](O)[C@@H]1O
Response: -6.03

Request: // query cytotoxicity at 70.5 h value for entry O=C1CCc2cc(S(=O)(=O)NC(=O)c3ccc4c(c3)CCO4)ccc2N1
Response: -1.87

Request: // query cytotoxicity at 70.5 h value for entry COCC(NC(=O)c1cnn(C)c1)c1cccc(C(F)(F)F)c1 (centres undefined)
Response: 2.36

* * *

The following compounds are listed with their measured cytotoxicity at 70.5 h values.
# assay-overview: Human HepG2 cell viability assay in 384 well format
# Assay type: toxicity, cell-based
# Set-up: dose 125 nL, time 70.5 hour; concentration not given beside the values
# applied-conditions: HepG2 cells, read-out: Inhibition
// note: answer is a bare numeric in %

Examples with answers:
compound="Cc1cc(C2CCCN(C(=O)c3cccnc3)C2)ccn1 (stereo unspecified)" observed_measurement=-11.1
compound="Cc1nc(CCN(C)C(=O)C2COc3ccccc3C2)no1 (stereo unspecified)" observed_measurement=17.3
compound="CCC(Nc1cccc(OC)c1)C(=O)NCc1ccc2c(c1)OCO2 (stereo unspecified)" observed_measurement=-8.45
compound=Cn1c(Cn2ccnc2)nnc1C1CCN(C(=O)C2(C)CC2)CC1 observed_measurement=-9.41
compound=CCc1nc(C)c(C(=O)N[C@@H]2c3ccccc3C[C@@H]2O)o1 observed_measurement=16

Then there is this compound:
Request: // query cytotoxicity at 70.5 h value for entry COCCN1CCC(CNC(=O)C2(c3ccc(F)cc3)CCC2)CC1
Response: -0.878
